Target: human V1a receptor (Homo sapiens)
Construct: expressed in transfected cells; host or cells: HEK293 cells, transiently transfected; cell membranes used
Sequence (P37288 whole entry): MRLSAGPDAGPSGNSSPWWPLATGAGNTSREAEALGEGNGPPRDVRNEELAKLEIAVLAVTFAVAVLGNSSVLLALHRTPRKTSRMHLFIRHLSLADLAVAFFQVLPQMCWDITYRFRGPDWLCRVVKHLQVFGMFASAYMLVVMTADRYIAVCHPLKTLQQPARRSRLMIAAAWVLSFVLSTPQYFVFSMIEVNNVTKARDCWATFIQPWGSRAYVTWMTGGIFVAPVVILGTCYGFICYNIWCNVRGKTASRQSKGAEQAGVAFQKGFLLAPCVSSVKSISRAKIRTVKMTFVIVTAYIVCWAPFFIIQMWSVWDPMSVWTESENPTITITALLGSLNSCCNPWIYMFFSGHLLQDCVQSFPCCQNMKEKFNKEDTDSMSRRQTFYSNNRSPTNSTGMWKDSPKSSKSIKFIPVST
Experiment: human V1a receptor binding study (3H-Vasopressin SPA, membranes of transfected HEK293 cells)
Conditions: membranes of HEK293 cells transiently transfected with human V1a receptor, Ki by Cheng-Prussoff equation, read-out: pKi(hV1a) (converted)
Procedure: The human V1a receptor was cloned by RT-PCR from total human liver RNA. The coding sequence was subcloned in an expression vector after sequencing to confirm the identity of the amplified sequence. […] Cell membranes were prepared from HEK293 cells transiently transfected with the expression vector and grown in 20 liter fermenters with the following protocol. […]
Measured Endpoint: Ki (nM)

>>> observed_value("N#CCn1c(C(=O)N2CCC3(CC2)OC(=O)Nc2ccccc23)cc2ccccc21 [Example 15]")
60.3
>>> observed_value("Cn1c(C(=O)N2CCC3(CC2)OC(=O)Nc2ccccc23)cc2cc(Cl)ccc21 [Example 14]")
29.9

a. N#CCn1c(C(=O)N2CCC3(CC2)CC(=O)Nc2ccc(Br)cc23)cc2cc(Cl)ccc21 [Example 7]
b. N#CCn1c(C(=O)N2CCC3(CC2)OC(=O)Nc2ccccc23)cc2cc(Cl)ccc21 [Example 16]
Name the one with the greater Ki value, either a or b as given. // return label of chosen record a
(a: 47.3 nM, b: 10.6 nM)
